Reference source for all entries: ChEMBL document CHEMBL3232934

target: Prostaglandin G/H synthase 2 (Homo sapiens) (UniProt P35354); settings: at 100 µM;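 also: COX2 inhibition read out by a colorimetric method, enzyme source not specified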
Sequence (P35354 whole entry): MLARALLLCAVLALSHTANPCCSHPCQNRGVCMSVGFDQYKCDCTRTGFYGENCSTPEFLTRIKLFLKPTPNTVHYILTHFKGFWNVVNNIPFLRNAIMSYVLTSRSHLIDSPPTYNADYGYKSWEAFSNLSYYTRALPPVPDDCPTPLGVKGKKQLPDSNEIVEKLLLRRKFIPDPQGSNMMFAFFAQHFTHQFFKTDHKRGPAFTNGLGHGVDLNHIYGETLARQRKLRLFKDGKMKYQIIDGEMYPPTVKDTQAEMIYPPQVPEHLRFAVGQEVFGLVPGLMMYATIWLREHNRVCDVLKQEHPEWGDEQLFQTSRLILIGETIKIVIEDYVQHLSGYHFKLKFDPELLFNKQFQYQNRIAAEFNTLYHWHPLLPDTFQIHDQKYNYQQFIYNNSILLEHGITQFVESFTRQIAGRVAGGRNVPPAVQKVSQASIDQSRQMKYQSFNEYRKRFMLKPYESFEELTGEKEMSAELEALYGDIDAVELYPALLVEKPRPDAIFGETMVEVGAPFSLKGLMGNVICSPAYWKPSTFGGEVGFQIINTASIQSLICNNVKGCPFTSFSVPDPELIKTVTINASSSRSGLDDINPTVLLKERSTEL
Description: Inhibition of COX2 (unknown origin) at 100 uM by colorimetric method
quantityKind: inhibition (%)

| lineNotation | endpointValue |
| --- | --- |
| COC(=O)/C(=C/c1ccc2ccccc2c1)CSc1nc2ccccc2s1 | 75.1 |
| CCOC(=O)/C(=C/c1ccc(CC)cc1)CSc1nc(C)cc(C)n1 | 76.5 |
| COC(=O)/C(=C/c1ccc(Cl)cc1)CSc1nc(C)cc(C)n1 | 53.5 |
| COC(=O)/C(=C/c1ccc(F)cc1)CSc1nc(C)cc(C)n1 | 71 |
| CCc1ccc(/C=C(\CSc2nncn2C)C(=O)OC)cc1 | 62.4 |
| COC(=O)/C(=C/c1ccc(OC)cc1)CSc1nc2ccccc2o1 | 77.1 |
| CCOC(=O)/C(=C/c1cccc(Cl)c1)CSc1nc(C)cc(C)n1 | 78.6 |
| CCOC(=O)/C(=C/c1ccc(C(C)C)cc1)CSc1nc(C)cc(C)n1 | 77.4 |
| COC(=O)/C(=C/c1ccc(C(F)(F)F)cc1)CSc1nc2ccccc2o1 | 81.9 |
| CCOC(=O)/C(=C/c1ccc(Br)cc1)CSc1nc(C)cc(C)n1 | 78.5 |
| CCOC(=O)/C(=C/c1cccc(Cl)c1)CSc1nc2ccccc2o1 | 76.7 |
| COC(=O)/C(=C/c1ccc2ccccc2c1)CSc1nc2ccccc2o1 | 78.4 |
| CCOC(=O)/C(=C/c1ccc(C(C)C)cc1)CSc1nc2ccccc2o1 | 81 |
| COC(=O)/C(=C/c1ccc(F)cc1)CSc1nc2ccccc2o1 | 72 |
| COC(=O)/C(=C/c1ccc(C(F)(F)F)cc1)CSc1nc2ccccc2s1 | 77.5 |
| CCOC(=O)/C(=C/c1ccc(Br)cc1)CSc1nc2ccccc2o1 | 64.7 |
| COC(=O)/C(=C/c1ccc(OC)cc1)CSc1nc(C)cc(C)n1 | 80.2 |
| CCOC(=O)/C(=C/c1cccc(F)c1)CSc1nncn1C | 78.6 |
| COC(=O)/C(=C/c1ccc(Cl)cc1)CSc1nc2ccccc2o1 | 74.8 |
| COC(=O)/C(=C/c1ccc2ccccc2c1)CSc1nc(C)cc(C)n1 | 73.5 |

----------
target: Prostaglandin G/H synthase 1 (Homo sapiens) (UniProt P23219); conditions: at 100 µM;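 also: COX-1 enzyme inhibition, read out colorimetrically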
Sequence (P23219 whole entry): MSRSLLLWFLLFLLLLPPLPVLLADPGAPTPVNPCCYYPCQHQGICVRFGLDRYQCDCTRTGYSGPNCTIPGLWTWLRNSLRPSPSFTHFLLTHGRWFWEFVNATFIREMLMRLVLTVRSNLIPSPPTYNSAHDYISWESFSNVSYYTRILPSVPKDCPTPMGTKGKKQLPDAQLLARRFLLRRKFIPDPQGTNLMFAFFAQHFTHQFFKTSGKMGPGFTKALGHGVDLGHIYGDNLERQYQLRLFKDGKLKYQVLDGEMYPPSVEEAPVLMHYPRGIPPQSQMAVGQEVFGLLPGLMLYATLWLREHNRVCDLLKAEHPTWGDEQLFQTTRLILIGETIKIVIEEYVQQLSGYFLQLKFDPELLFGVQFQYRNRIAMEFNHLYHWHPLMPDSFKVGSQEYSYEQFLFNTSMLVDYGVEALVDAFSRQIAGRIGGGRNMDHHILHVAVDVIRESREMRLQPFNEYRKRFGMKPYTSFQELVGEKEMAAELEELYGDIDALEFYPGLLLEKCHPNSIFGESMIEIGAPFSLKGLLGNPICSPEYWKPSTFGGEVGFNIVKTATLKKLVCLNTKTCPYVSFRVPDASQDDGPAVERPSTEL
Description: Inhibition of COX1 (unknown origin) at 100 uM by colorimetric method
Items are presented alongside their recorded inhibition.
quantityKind: inhibition (%)

| lineNotation | quantityKind | endpointValue |
| --- | --- | --- |
| COC(=O)/C(=C/c1ccc(C(F)(F)F)cc1)CSc1nc2ccccc2s1 | inhibition | 51.4 |
| COC(=O)/C(=C/c1ccc(Cl)cc1)CSc1nc(C)cc(C)n1 | inhibition | 50.7 |
| COC(=O)/C(=C/c1ccc(F)cc1)CSc1nc(C)cc(C)n1 | inhibition | 50.7 |
| CCOC(=O)/C(=C/c1cccc(Cl)c1)CSc1nc2ccccc2o1 | inhibition | 50 |
